tested on: IKK-alpha; construct: gene CHUK; conditions: concentration: 1 μM, replicates: in singlicate; n = 1;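 further: KINOMEscan kinase panel screen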
MEASUREMENT KIND: %Inh (%)
Give bare numbers, in %.

Worked cases, answers included:
COMPOUND: Cc1ccc(-c2nc(Nc3ccncc3)c3ccccc3n2)s1 [GSK189015]
SYSTEM TESTED: IKK-alpha
READING UNIT: %
%Inh: 2
//
COMPOUND: CCCCc1nn2ncccc2c1-c1ccnc(NC2CC2)n1 [GW684374]
SYSTEM TESTED: IKK-alpha
READING UNIT: %
%Inh: 0
//
COMPOUND: Cn1cncc1C(=O)NC1CCN(c2ccnc(Nc3ccc(F)cc3)n2)C1 (stereo not drawn) [GSK1379717]
SYSTEM TESTED: IKK-alpha
READING UNIT: %
%Inh: 25
//
COMPOUND: COc1ccc(Nc2nccc(N3CCC(NC(=O)C(C)c4ccc(Cl)cc4)CC3)n2)cc1 (stereo not drawn) [GSK1379812]
SYSTEM TESTED: IKK-alpha
READING UNIT: %
%Inh: 0
//
COMPOUND: CCc1ccc(-c2ccc3c(c2)-c2n[nH]cc2S(=O)(=O)N3C)cc1
SYSTEM TESTED: IKK-alpha
READING UNIT: %
%Inh: 0

For each entry beneath this line, provide reported %Inh.
1. COc1cc2ncnc(Nc3cccc(Br)c3)c2cc1OC.Cl [GI230329]
2. CNCc1ccc2nc(NC(=O)c3ccc(C(C)(C)C)cc3)cn2c1

Reply:
1. 0
2. 8

Okay, here is my list. What is %Inh for each of these?
1. O=C(Nc1n[nH]c2cc(-c3ccsc3)ccc12)C1CC1 [SB-732932]
2. O=c1cc(N2CCOCC2)nc2n(Cc3cccc(Cl)c3Cl)c3ccccc3n12 [GSK2299009]
3. Cn1cncc1-c1cc2c(Nc3ccc(OCc4ccccc4)cc3)ncnc2cn1 [GW281179]
4. CN1c2ccc(-c3ccc(C(N)=O)cc3)cc2-c2[nH]ncc2S1(=O)=O
5. O=C(Nc1n[nH]c2nc(-c3cccs3)c(Br)cc12)C1CC1 [SB-735297]
6. COC(=O)c1cccc(NC(=O)NC2CCN(c3ccnc(Nc4ccc(F)cc4)n3)C2)c1 (stereo not drawn) [GSK1379725]

Reply:
[9, 0, 0, 0, 0, 0]

Take each entry in turn and give its %Inh.
1. COc1ccc(Nc2nccc(NCCNC(=O)Nc3cc(C)ccc3C)n2)cc1 [GSK1379899]
2. O=c1cc(N2CCOCC2)nc2n(Cc3ccccc3F)ccn12 [GSK2297428]

Reply:
1: 8; 2: 0

----------
Provide the recorded %Inh for the entries that follow.
test system: AMPK-alpha2; construct: gene PRKAA2; conditions: concentration: 1 μM, replicates: in singlicate; n = 1
One number for each entry, in %.

Use the examples below as a reference point.
COMPOUND: Cc1ccccc1-c1cc(-c2c[nH]nc2-c2ccccn2)ccn1 [GW680061]
READING UNIT: %
%Inh: 0
--
COMPOUND: COC(=O)c1cccc(NC(=O)NC2CCN(c3ccnc(Nc4ccc(F)cc4)n3)C2)c1 (centres unmarked) [GSK1379725]
READING UNIT: %
%Inh: 0
--
COMPOUND: Cc1ccc(NC(=O)c2ccc(Cl)cc2)cc1-c1ccc(C(=O)Nc2ccncc2)cc1 [GSK1398467]
READING UNIT: %
%Inh: 21
--
COMPOUND: Cc1c(Cn2c(C)c(C)n3c(=O)cc(N4CCOCC4)nc23)cccc1C(F)(F)F [GSK2328680]
READING UNIT: %
%Inh: 2
--
COMPOUND: Cc1ccc(NC(=O)Nc2ccccc2F)cc1-c1ccc(C(=O)Nc2ccncc2)cc1 [GSK1398477]
READING UNIT: %
%Inh: 23
--
COMPOUND: COc1ccc(Nc2nccc(NCCNC(=O)Nc3cc(C)ccc3C)n2)cc1 [GSK1379899]
READING UNIT: %
%Inh: 0

Hi team, please reply with %Inh for each item in this list.
1. CS(=O)(=O)CCNCc1nc(-c2ccc3ncnc(Nc4ccc(OCc5ccccc5)c(Cl)c4)c3c2)cs1.Cl [GW582764]
2. Fc1ccc(-c2nc3n(c2-c2ccncc2)CCS3)cc1 [GI98581]
3. COc1nccc(-c2c(-c3ccc(F)cc3)ncn2CCCN2CCOCC2)n1 [SB-282852]
4. COC(=O)C(Cc1ccccc1)NC(=O)NC1CCN(c2ccnc(Nc3ccc(F)cc3)n2)C1 (centres unmarked) [GSK1379714]
5. COc1ccc(CSc2nnc(-c3ccc4c(c3)CCO4)o2)cc1

Reply:
1: 0; 2: 0; 3: 0; 4: 0; 5: 0
